Just for reference, PubChem BioAssay (NCI) is where these values come from.

# Tested on: TK-10 renal
# protocol-details: NCI tumour cell line growth inhibition, 48 h
The following compounds are listed with their measured TGI values.

compound	tested-system	TGI
C=CCNC(=S)N1CC(C)C(=O)Nc2ccccc21 (stereo unspecified)	TK-10 renal	> 100 µM
O=C(Oc1ccc(O)c2c(=O)n3c(cc12)[nH]c1ccccc13)c1ccccc1	TK-10 renal	40.8 µM
Cc1ccc2c(c1)OC1Nc3ccccc3C1=C2O (stereo unspecified)	TK-10 renal	78.3 µM
COC(OC)C(O)C1OC=CC1n1cnc2c(N)ncnc21 (stereo unspecified)	TK-10 renal	> 100 µM
COc1ccc(NC2Oc3cc4c(cc3C(c3cc(OC)c(O)c(OC)c3)C2C)OCO4)cc1 (stereo unspecified)	TK-10 renal	17.7 µM

State, in one line, measured TGI of `c1cnc2c(c1)-n1cccc1C1(CCSCC1)NN2` > 100 µM

====

# System: NCI-H522 lung
# protocol-details: NCI tumour cell line growth inhibition, 48 h
property-measured: TGI (µM)
Your answer should be a plain number; it is taken to be in µM.

Completed entries (count: 5):
compound	tested-system	readout-unit	readout-value
COC(=O)C(COC(=O)/C=C/c1ccc(OC(C)=O)c(OC(C)=O)c1)OC(=O)/C=C/c1ccc(OC(C)=O)c(OC(C)=O)c1 (centres undefined)	NCI-H522 lung	µM	26.7
COS(=O)c1cc(Cl)cc(Cl)c1O (centres undefined)	NCI-H522 lung	µM	36.3
CC(C)(C)N1Cc2ccccc2/C(=C/Sc2ccccc2)C1=O	NCI-H522 lung	µM	11.4
CC1(C)C=CC[C@]2(C)[C@H]3CC[C@@H]4[C@H]5[C@H](C(=O)/C=C/c6cccnc6)CC[C@]5(CO)CC[C@@]4(C)[C@]3(C)CC[C@@H]12	NCI-H522 lung	µM	2.74
CCCCCCCCCCCCCCCCNc1nc(=O)n(C2CC(O)C(CO)O2)cc1F (centres undefined)	NCI-H522 lung	µM	20.7

State, in one line, measured TGI of `Nc1c(C(=O)c2ccccc2)sc2nc(-c3cccs3)ccc12` 0.0567

State, in one line, measured TGI of COC1=CC23C=CC1[C@@H](c1ccccc1)C2=C(C)C(=O)N3C(=O)NC1CCCCC1 (some centres undefined) 41.3

====

# Tested on: NCI/ADR-RES ovarian
# protocol-details: NCI tumour cell line growth inhibition, 48 h
The following compounds are listed with their measured TGI values.

compound	TGI
NC(N)=N/N=C/c1nc2sccn2c1[N+](=O)[O-]	> 100 µM
Cc1nn(C(=O)c2ccccc2O)c2c1C(c1ccccc1)SC(N)=N2 (configuration not stated)	> 10 µM
O=C1c2ccccc2CC12Cc1ccc3c(c1C2)CCC3 (configuration not stated)	28.4 µM
CCOC(=O)c1cn(-c2ccc(Cl)cc2)c(=O)n2c1nc1ccccc12	> 100 µM
COC(=O)c1cncc2c1CC1C3(C(=O)OC)C=NC(C4C(CO)=CCC43)C21C (configuration not stated)	> 100 µM
O=C(c1ccco1)N(C(=S)OCc1ccccn1)c1ccccc1	> 100 µM
OCCN=C1Nc2ccc(Cl)cc2C(=S)N2CSC[C@@H]12	> 100 µM
COC1/C=C/C(C)C(C(C)C(OC)C(C)CCC(=O)C(C)C(CCC(=O)O)OC)OC(=O)/C=C/C=C(\C)CC(OC)CC2=CC(=O)O[C@@H](C(C)C(OC)CC(OC)/C=C/C(C)C(OC)C1)[C@H]2O (some centres not stated)	> 5 µM
O=C1[C@@H]2Cc3c([nH]c4ccccc34)C(C3CCCCC3)N2C(=O)[C@@H]2CCCN12 (some centres not stated)	78.7 µM
Cc1ccc(C(=O)c2oc3ccc4c(C)cc(=O)oc4c3c2C)cc1	> 100 µM

State, in one line, measured TGI of `CSC(=NC1=NC(C(F)(F)F)(C(F)(F)F)N=C(c2ccccc2)O1)SC` 90.9 µM

State, in one line, measured TGI of `CCOC(=O)c1c(N2CCOCC2)[nH]c(=O)c(C(c2ccc(OC)cc2)c2c(O)c(C(=O)OCC)c(N3CCOCC3)[nH]c2=O)c1O` > 100 µM
